study_target: T1, NDP52 (Human, UniProt Q13137 1-446)
T1 sequence: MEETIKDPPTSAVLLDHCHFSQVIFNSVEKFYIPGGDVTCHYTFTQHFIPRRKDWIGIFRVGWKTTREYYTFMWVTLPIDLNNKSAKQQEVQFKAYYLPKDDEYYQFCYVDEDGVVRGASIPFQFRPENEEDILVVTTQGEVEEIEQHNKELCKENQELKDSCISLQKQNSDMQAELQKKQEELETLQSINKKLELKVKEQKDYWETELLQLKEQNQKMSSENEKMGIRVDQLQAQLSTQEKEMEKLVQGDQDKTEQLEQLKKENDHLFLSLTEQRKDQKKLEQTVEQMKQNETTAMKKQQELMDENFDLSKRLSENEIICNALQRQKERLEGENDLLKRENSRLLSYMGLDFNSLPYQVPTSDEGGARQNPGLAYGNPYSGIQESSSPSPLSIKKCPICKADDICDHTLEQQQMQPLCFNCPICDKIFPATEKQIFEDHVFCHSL
protocol_notes: fluorescence intensity titration; FAM-DNA 50 nM; assay buffer, salt, pH and temperature not given in the material (duplex annealing in water or 50 mM Tris-HCl pH 7.5, 150 mM NaCl, 3 mM MgCl2)
experimental_context: protein: recombinant; tags: His-tag (pET151), TEV-cleaved; chain copies: 2; label: 3' FAM on strand A; blunt
quantity_measured: Kd (nM)

>>> test_result("ds40 (dsDNA) DNA 1: TTAGTTGTTCGTAGTGCTCGTCTGGCTCTGGATTACCCGC DNA 2: GCGGGTAATCCAGAGCCAGACGAGCACTACGAACAACTAA")
80
